Overview of recorded self-cleavage kobs at 2500 uM GlcN6P for various variants
B1: glmS ribozyme (parent)
chain: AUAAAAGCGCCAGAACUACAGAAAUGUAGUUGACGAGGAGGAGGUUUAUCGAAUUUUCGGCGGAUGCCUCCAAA

Variants of: B1
Procedure details: self-cleavage kobs at 2500 uM GlcN6P; higher = faster cleavage; RNA array
Study conditions: with glucosamine-6-phosphate
This sample holds only a part of the variants without activity.
Property name: self-cleavage kobs at 2500 uM GlcN6P (s⁻¹)

INSERT INTO measurements (variant_name, units_label, qualifying_sign, obs_value) VALUES
  ('A12U G13C U56G C67U', 's⁻¹', '<', '1e-05'),
  ('A6C G66A', 's⁻¹', '=', '3.57e-05'),
  ('G29C U47C', 's⁻¹', '=', '7.73e-05'),
  ('G32U U56G C71A', 's⁻¹', '=', '9.14e-05'),
  ('A6C U45A', 's⁻¹', '=', '8.34e-05'),
  ('A39U G43A C67G', 's⁻¹', '=', 0.000131),
  ('A48U U55G', 's⁻¹', '=', 0.000226),
  ('G43C A48G C71G', 's⁻¹', '<', '1e-05'),
  ('G32U G38C G40C U57C C67A', 's⁻¹', '<', '1e-05'),
  ('C10A U65G', 's⁻¹', '<', '1e-05'),
  ('C50G U65G', 's⁻¹', '=', '7.28e-05');
